inhibition values for the compounds below.
experimental system: Mitogen-activated protein kinase 12 (Homo sapiens) (UniProt P53778)
Sequence (whole entry): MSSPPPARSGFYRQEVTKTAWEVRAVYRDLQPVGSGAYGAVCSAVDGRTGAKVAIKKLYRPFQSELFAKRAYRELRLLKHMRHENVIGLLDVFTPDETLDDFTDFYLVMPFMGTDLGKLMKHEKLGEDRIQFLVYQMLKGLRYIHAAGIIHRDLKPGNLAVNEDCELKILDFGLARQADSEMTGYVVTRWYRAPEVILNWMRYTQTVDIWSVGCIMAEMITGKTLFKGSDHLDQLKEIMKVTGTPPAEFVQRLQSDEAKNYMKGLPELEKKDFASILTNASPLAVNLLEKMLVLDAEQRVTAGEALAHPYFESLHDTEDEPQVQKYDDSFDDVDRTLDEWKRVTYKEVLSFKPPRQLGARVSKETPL
experimental protocol: Inhibition of p38-gamma at 10 uM by HTRF assay relative to control
The answer is to be given in %; state only the numeric part.

Worked set:
CN(C)c1ccc(C(=O)N2CCN(c3ncnc4c3CN(Cc3ccccc3)CC4)CC2)c2ccccc12 : 0
Cc1cc(C(=O)N2CCN(c3ncnc4c3CN(Cc3ccccc3)CC4)CC2)c(C)n1C : 0

Attention now turns to another entry.
Q. For the compound COC(=O)C(CO)NC(=O)[C@@H]1CCCN1c1nccc(Oc2cccc(C)c2)n1 (stereo partly drawn) , what inhibition is on record?
A. 0

----------
experimental system: Platelet-derived growth factor receptor beta (Homo sapiens)
experimental protocol: Inhibition of PDGFRbeta at 10 uM by HTRF assay relative to control
measured metric: inhibition (%)
The answer is to be given in %; state only the numeric part.

Worked set:
COc1cccc(Nc2cc(N3CCC[C@H]3C(=O)NCCc3ccc(O)cc3)nc(N)n2)c1 : 0
O=C(CN1CCN(c2ncnc3c2CN(Cc2ccccc2)CC3)CC1)Nc1cc(F)ccc1F : 5

Q. For the molecule Nc1nc(Nc2ccc3ncsc3c2)cc(N2CCC[C@H]2C(=O)NCCc2cccc(I)c2)n1 , what inhibition is on record?
A. 14

Q. For the molecule COc1cccc(Nc2cc(N3CCC[C@H]3C(=O)NCCN3CCCCC3)nc(N)n2)c1 , what inhibition is on record?
A. 8

Q. For the molecule Cc1cccc(Nc2nccc(Nc3cccc(C(=O)N(C)CCc4ccccn4)c3)n2)c1 , what inhibition is on record?
A. 93

Q. For the molecule Nc1nc(Nc2ccccc2)cc(N2CCC(C(=O)NCCc3ccccn3)CC2)n1 , what inhibition is on record?
A. 0

Q. For the molecule COC[C@@H]1CCCN1C(=O)[C@@H]1CCCN1c1cc(Nc2cccc(OC)c2)nc(N)n1 , what inhibition is on record?
A. 4

----------
experimental system: RAC-alpha serine/threonine-protein kinase (Homo sapiens)
experimental protocol: Inhibition of AKT1/PKBalpha at 10 uM by HTRF assay relative to control
inhibition values for the molecules below.
The answer is to be given in %; state only the numeric part.

Q. For the molecule Cc1cccc(N(C)c2cc(Nc3cccc(C(=O)N(CC(C)C)CC(C)C)c3)ncn2)c1 , what inhibition is on record?
A. 0

Q. For the molecule Cc1cccc(Nc2nccc3c2CN(C(=O)c2cc(C)n(C)c2C)CC3)c1 , what inhibition is on record?
A. 0

Q. For the molecule O=C(c1nc(SCc2ccc(Cl)cc2)n2ccccc12)N1CCN(c2ncnc3c2CN(Cc2ccccc2)CC3)CC1 , what inhibition is on record?
A. 0

Q. For the molecule O=C(NCCc1ccc(O)cc1)c1cccc(Nc2nccc(Nc3ccc4ncsc4c3)n2)c1 , what inhibition is on record?
A. 0

Q. For the molecule Nc1nc(N2CCOCC2)cc(N2CCC(C(=O)NCc3cccs3)CC2)n1 , what inhibition is on record?
A. 0

Q. For the molecule Cc1cccc(CN2CCN(c3cc(N(C)c4cccc(C)c4)ncn3)CC2)c1 , what inhibition is on record?
A. 5
